Biological target: Interleukin-1 receptor-associated kinase 4 (Homo sapiens, UniProt Q9NWZ3)
Sequence (Q9NWZ3 whole entry): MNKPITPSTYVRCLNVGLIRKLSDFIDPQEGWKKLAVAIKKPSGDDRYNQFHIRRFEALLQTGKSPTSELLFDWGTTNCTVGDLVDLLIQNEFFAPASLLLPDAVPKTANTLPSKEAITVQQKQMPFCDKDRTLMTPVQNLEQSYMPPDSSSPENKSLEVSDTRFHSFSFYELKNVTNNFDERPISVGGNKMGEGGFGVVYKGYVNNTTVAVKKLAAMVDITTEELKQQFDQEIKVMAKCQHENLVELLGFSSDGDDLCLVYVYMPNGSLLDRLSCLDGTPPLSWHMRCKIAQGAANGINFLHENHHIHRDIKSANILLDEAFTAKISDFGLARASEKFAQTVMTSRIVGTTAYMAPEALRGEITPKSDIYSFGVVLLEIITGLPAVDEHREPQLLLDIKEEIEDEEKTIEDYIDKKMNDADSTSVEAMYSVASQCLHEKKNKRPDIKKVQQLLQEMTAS
pIC50: −log10 of the molar value.
value-kind: pIC50

COc1cc2nn([C@H]3CC[C@H](O)C[C@@H]3C)cc2cc1C(=O)Nc1cnn2cccnc12 [US11866405, Example 40] = 8.20

P: COc1cc2nn([C@H]3CC[C@H](N(C)C(=O)[C@H](C)O)CC3)cc2cc1C(=O)Nc1cnc2cccnn12 [US11866405, Example 94]
Q: COc1cc2nn([C@@H]3CC[C@]4(CCC(=O)N4C)C[C@H]3C)cc2cc1C(=O)Nc1cnc2cccnn12 (relative stereo; form 2) [US11866405, Example 122]
Query: Of P and Q , which carries the smaller reported pIC50 figure? # answer = label of selected item
Result: Q
(Q: 9.15, P: 9.52)

###

target: Interleukin-1 receptor-associated kinase 4 (Homo sapiens); experiment: Potency of IRAK4 Inhibitor Compounds in IRAK4 Enzyme Assay
pIC50: −log10 of the molar value.
value-kind: pIC50

C[C@@]1(O)CCC[C@H](n2cc3cc(C(=O)Nc4cnn5cccnc45)c(OC4CC4)cc3n2)C1 (relative stereo) = 9.22

1: C[C@H]1C[C@@H](O)CC[C@@H]1n1cc2cc(C(=O)Nc3cnn4cccnc34)c(OC3CC3)cc2n1
2: COc1cc2nn([C@H]3CCC[C@H](O)[C@@H]3C)cc2cc1C(=O)Nc1cnc2cccnn12 (relative stereo)
Query: Could you check which of 1 and 2 has a smaller value for pIC50? Refer to your chosen item by its label in the answer.
Result: 1
(1: 8.85, 2: 9.22)
